Test system: S. aureus (ATCC Accession No. 29213)
TEST METHOD NOTES: MIC, CLSI/NCCLS broth microdilution
Assay type: cell-based, Staphylococcus aureus
TEST CONTEXT: Staphylococcus aureus, ATCC29213; >80% growth inhibition, 24 h, 37° C.; read-out: Minimal Inhibitory Concentration (MIC) S. aureus
Would you mind telling me the reported MIC of each entry?
One number for each entry, in µM.

INSERT INTO measurements (molecule, unit_text, measurement) VALUES
  ('Cl.Cl.N[C@@H](Cc1c[nH]c2ccccc12)C(=O)Nc1ccc(NC(=O)[C@@H](N)Cc2c[nH]c3ccccc23)cc1 [Compound 6]', 'µM', 128),
  ('Cl.Cl.N[C@@H](Cc1c[nH]c2ccccc12)C(=O)Nc1ccccc1NC(=O)[C@@H](N)Cc1c[nH]c2ccccc12 [Compound 5]', 'µM', 32),
  ('Cl.Cl.N[C@H](Cc1c[nH]c2ccccc12)C(=O)Nc1cccc(NC(=O)[C@H](N)Cc2c[nH]c3ccccc23)c1 [Compound 3]', 'µM', 32),
  ('Cl.Cl.N[C@H](Cc1c[nH]c2ccccc12)C(=O)NCCCCCCCCCCCCNC(=O)[C@@H](N)Cc1c[nH]c2ccccc12 [Compound 10]', 'µM', 4);

Kindly review the next molecule as well.
What value of MIC has been recorded for this entry: Cl.Cl.N[C@@H](Cc1c[nH]c2ccccc12)C(=O)Nc1cccc(NC(=O)[C@@H](N)Cc2c[nH]c3ccccc23)c1 [Compound 2]
32

====

Test system: E. coli K12
TEST METHOD NOTES: MIC, CLSI/NCCLS broth microdilution
Assay type: cell-based, Escherichia coli
TEST CONTEXT: Escherichia coli, K12, 24 h, read-out: Minimal Inhibitory Concentration (MIC) E. coli K12
ENDPOINT LABEL: MIC

Examples with their reported MIC follow.
INSERT INTO assay_data (given_smiles, measured_target, endpoint_label, measurement) VALUES
  ('Cl.Cl.N[C@H](Cc1c[nH]c2ccccc12)C(=O)NCCCCNC(=O)[C@@H](N)Cc1c[nH]c2ccccc12', 'E. coli K12', 'MIC', '> 128 µM'),
  ('Cl.Cl.NCC(=O)Nc1cccc(NC(=O)CN)c1', 'E. coli K12', 'MIC', '> 128 µM'),
  ('Cl.Cl.N[C@H](Cc1c[nH]c2ccccc12)C(=O)Nc1cccc(NC(=O)[C@H](N)Cc2c[nH]c3ccccc23)c1', 'E. coli K12', 'MIC', '64 µM'),
  ('Cl.Cl.N[C@@H](Cc1c[nH]c2ccccc12)C(=O)Nc1cccc(NC(=O)[C@@H](N)Cc2c[nH]c3ccccc23)c1', 'E. coli K12', 'MIC', '64 µM');

Consider the following items and state reported MIC for each.
1. O=C(CCc1c[nH]c2ccccc12)Nc1cccc(NC(=O)CCc2c[nH]c3ccccc23)c1
2. Cl.Cl.N[C@@H](Cc1c[nH]c2ccccc12)C(=O)NCCCCCCNC(=O)[C@@H](N)Cc1c[nH]c2ccccc12

["> 128 µM", "> 128 µM"]

Please go through the list and note MIC for each molecule.
1. Cl.Cl.N[C@H](Cc1c[nH]c2ccccc12)C(=O)NCCCCCCCCCCCCNC(=O)[C@@H](N)Cc1c[nH]c2ccccc12
2. Cl.N[C@@H](Cc1c[nH]c2ccccc12)C(=O)Nc1ccccc1
3. Cl.Cl.N[C@@H](Cc1c[nH]c2ccccc12)C(=O)Nc1ccc(NC(=O)[C@@H](N)Cc2c[nH]c3ccccc23)cc1
4. Cl.Cl.N[C@@H](Cc1c[nH]c2ccccc12)C(=O)NCCCNC(=O)[C@@H](N)Cc1c[nH]c2ccccc12

1. 8 µM
2. > 128 µM
3. 128 µM
4. > 128 µM

Which MIC is listed for "Cl.Cl.N[C@@H](Cc1c[nH]c2ccccc12)C(=O)Nc1ccccc1NC(=O)[C@@H](N)Cc1c[nH]c2ccccc12" ?
64 µM

====

Field: MIC. Provide a value for each of the compounds that follow.
Tested on: Tet^R E. coli
One number for each entry, in µM.

INSERT INTO measurements (compound, endpoint_label, unit_text, measurement) VALUES
  ('CN(C)[C@@H]1C(O)=C(C(N)=O)C(=O)[C@@]2(O)C(O)=C3C(=O)c4c(O)cccc4[C@@](C)(O)[C@H]3C[C@@H]12 [tetracycline, reference compound]', 'MIC', 'µM', 900),
  ('Cl.Cl.N[C@@H](Cc1c[nH]c2ccccc12)C(=O)Nc1cccc(NC(=O)[C@@H](N)Cc2c[nH]c3ccccc23)c1', 'MIC', 'µM', 48),
  ('Cl.Cl.N[C@@H](Cc1c[nH]c2ccccc12)C(=O)Nc1ccc(NC(=O)[C@@H](N)Cc2c[nH]c3ccccc23)cc1', 'MIC', 'µM', 120);

Give one value of MIC per listed compound.
1. Cl.Cl.N[C@H](Cc1c[nH]c2ccccc12)C(=O)NCCCCCCCCCCCCNC(=O)[C@@H](N)Cc1c[nH]c2ccccc12
2. Cl.Cl.N[C@@H](Cc1c[nH]c2ccccc12)C(=O)NCCCCCCNC(=O)[C@@H](N)Cc1c[nH]c2ccccc12
3. Cl.Cl.N[C@@H](Cc1c[nH]c2ccccc12)C(=O)Nc1ccccc1NC(=O)[C@@H](N)Cc1c[nH]c2ccccc12

10
128
56

# query: MIC of entry "Cl.Cl.N[C@H](Cc1c[nH]c2ccccc12)C(=O)Nc1cccc(NC(=O)[C@H](N)Cc2c[nH]c3ccccc23)c1"
28

====

Assignment: determine reported melting point for the given compounds.

INSERT INTO assay_data (given_smiles, endpoint_label, measurement) VALUES
  ('Cl.Cl.N[C@H](Cc1c[nH]c2ccccc12)C(=O)NCCCCCCCCCCCCNC(=O)[C@@H](N)Cc1c[nH]c2ccccc12', 'melting point', '158 °C (dec.)');

Hey, can you go through the list below and give me melting point for every item?
1. Cl.Cl.N[C@@H](Cc1c[nH]c2ccccc12)C(=O)Nc1cccc(NC(=O)[C@@H](N)Cc2c[nH]c3ccccc23)c1
2. O=C(CCc1c[nH]c2ccccc12)Nc1cccc(NC(=O)CCc2c[nH]c3ccccc23)c1
3. Cl.Cl.N[C@@H](Cc1c[nH]c2ccccc12)C(=O)NCCCCCCNC(=O)[C@@H](N)Cc1c[nH]c2ccccc12
4. Cl.Cl.N[C@@H](Cc1c[nH]c2ccccc12)C(=O)NCCCNC(=O)[C@@H](N)Cc1c[nH]c2ccccc12
5. Cl.Cl.N[C@@H](Cc1c[nH]c2ccccc12)C(=O)Nc1ccc(NC(=O)[C@@H](N)Cc2c[nH]c3ccccc23)cc1
6. Cl.Cl.N[C@H](Cc1c[nH]c2ccccc12)C(=O)NCCCCNC(=O)[C@@H](N)Cc1c[nH]c2ccccc12
7. Cl.Cl.N[C@@H](Cc1c[nH]c2ccccc12)C(=O)Nc1ccccc1NC(=O)[C@@H](N)Cc1c[nH]c2ccccc12

1. 223 °C (dec.)
2. 154 to 156 °C
3. 193 °C (dec.)
4. 234 °C (dec.)
5. 237 °C (dec.)
6. 204 °C (dec.)
7. 201 °C (dec.)

Could you report melting point for every entry in the following list?
1. Cl.Cl.NCC(=O)Nc1cccc(NC(=O)CN)c1
2. Cl.Cl.N[C@H](Cc1c[nH]c2ccccc12)C(=O)Nc1cccc(NC(=O)[C@H](N)Cc2c[nH]c3ccccc23)c1

310 °C (dec.)
242 °C (dec.)

====

System: Tet^R E. coli
TEST METHOD NOTES: Recovery of tetracycline activity (co-administration, MIC of tetracycline)
Format: cell-based, Escherichia coli
TEST CONTEXT: compound at ½ MIC (2: 24, 3: 14, 5: 28, 6: 60, 7: 60, 10: 5 μM)
What FIC (fractional inhibitory concentration) with tetracycline was measured for each of the following?

Study these solved cases before continuing.
INSERT INTO results (given_smiles, measurement) VALUES
  ('Cl.Cl.N[C@@H](Cc1c[nH]c2ccccc12)C(=O)NCCCNC(=O)[C@@H](N)Cc1c[nH]c2ccccc12', 0.63),
  ('Cl.Cl.N[C@H](Cc1c[nH]c2ccccc12)C(=O)NCCCCCCCCCCCCNC(=O)[C@@H](N)Cc1c[nH]c2ccccc12', 0.75),
  ('Cl.Cl.N[C@H](Cc1c[nH]c2ccccc12)C(=O)Nc1cccc(NC(=O)[C@H](N)Cc2c[nH]c3ccccc23)c1', 0.63),
  ('Cl.Cl.N[C@@H](Cc1c[nH]c2ccccc12)C(=O)Nc1cccc(NC(=O)[C@@H](N)Cc2c[nH]c3ccccc23)c1', 0.56),
  ('Cl.Cl.N[C@@H](Cc1c[nH]c2ccccc12)C(=O)Nc1ccccc1NC(=O)[C@@H](N)Cc1c[nH]c2ccccc12', 0.63);

Turning now to a further compound:
Entry under review: "Cl.Cl.N[C@@H](Cc1c[nH]c2ccccc12)C(=O)Nc1ccc(NC(=O)[C@@H](N)Cc2c[nH]c3ccccc23)cc1" . Reported FIC (fractional inhibitory concentration) with tetracycline?
0.63
